Source listed as ChEMBL document CHEMBL6103645.

- Tested on: NCI-H460
- measurementNotes: Anti-tumor activity against human NCI-H460 cells assessed as cell viability incubated for 48 hrs by CCK-8 assay
- Format: functional, cell-based
- appliedConditions: NCI-H460, 48 h
endpointName: pIC50
Bear in mind: pIC50 is minus log10 of a mol/L concentration; give just that figure.

Use these answered entries as a reference point.
Input line: Using the record for `COc1ccc([Se]c2c(-c3ccc(Cl)cc3)ncc3ccccc23)cc1` , state its measured pIC50.
Output line: 4.11

Input line: Using the record for `c1ccc([Se]c2c(-c3ccc4ccccc4c3)ncc3ccccc23)cc1` , state its measured pIC50.
Output line: 4.26

Input line: Using the record for `Cc1cccc([Se]c2c(-c3ccccc3)ncc3ccccc23)c1` , state its measured pIC50.
Output line: 4.42

Input line: Using the record for `c1ccc([Se]c2c(-c3ccccc3)ncc3cccnc23)cc1` , state its measured pIC50.
Output line: 4.37

Input line: Using the record for `FC(F)(F)c1ccccc1[Se]c1c(-c2ccccc2)ncc2ccccc12` , state its measured pIC50.
Output line: 4.17

Now let's try a different one.
Input line: Using the record for `Fc1ccc([Se]c2c(-c3ccccc3)ncc3ccccc23)cc1` , state its measured pIC50.
Output line: 4.69

----------
- System: NCI-H460
- measurementNotes: Anti-tumor activity against human NCI-H460 cells assessed as cell viability incubated for 48 hrs by CCK-8 assay
- Type: functional, cell-based
- appliedConditions: NCI-H460, 48 h
Here the recorded IC50 is given for each entry.
Numbers only here, please. The scale is µM.

Use these answered entries as a reference point.
Input line: Using the record for `c1ccc([Se]c2c(-c3ccccc3)ncc3ccccc23)cc1` , state its measured IC50.
Output line: 61.6

Input line: Using the record for `N#Cc1cccc([Se]c2c(-c3ccccc3)ncc3ccccc23)c1` , state its measured IC50.
Output line: 68

Input line: Using the record for `COc1ccc([Se]c2c(-c3ccccc3)ncc3cc(Cl)ccc23)cc1` , state its measured IC50.
Output line: 93.3

Input line: Using the record for `Clc1ccc2c([Se]c3ccccc3)c(-c3ccccc3)ncc2c1` , state its measured IC50.
Output line: 99.2

Input line: Using the record for `COc1ccc([Se]c2c(-c3ccccc3)ncc3sccc23)cc1` , state its measured IC50.
Output line: 33.6

Input line: Using the record for `c1ccc([Se]c2c(-c3ccccc3)ncc3sccc23)cc1` , state its measured IC50.
Output line: 65.6

Input line: Using the record for `COc1cc2cnc(-c3ccccc3)c([Se]c3ccccc3)c2cc1OC` , state its measured IC50.
Output line: 42.3

Input line: Using the record for `Clc1cccc([Se]c2c(-c3ccccc3)ncc3ccccc23)c1` , state its measured IC50.
Output line: 56.7

Others:
Input line: Using the record for `FC(F)(F)c1ccc([Se]c2c(-c3ccccc3)ncc3ccccc23)cc1` , state its measured IC50.
Output line: 53.6

Input line: Using the record for `COc1ccc([Se]c2c(-c3ccccc3)ncc3cc(OC)ccc23)cc1` , state its measured IC50.
Output line: 8.58

Input line: Using the record for `FC(F)(F)c1ccc2c([Se]c3ccccc3)c(-c3ccccc3)ncc2c1` , state its measured IC50.
Output line: 51.9

Input line: Using the record for `COc1ccc([Se]c2c(-c3ccccc3)ncc3ccc(OC)cc23)cc1` , state its measured IC50.
Output line: 5.9

Input line: Using the record for `COc1ccc([Se]c2c(-c3ccccc3)ncc3cc(C(F)(F)F)ccc23)cc1` , state its measured IC50.
Output line: 42.6

----------
- Tested on: NCI-H460
- measurementNotes: Anti-tumor activity against human NCI-H460 cells assessed as cell viability incubated for 48 hrs by CCK-8 assay
- Assay type: functional, cell-based
- appliedConditions: NCI-H460, 48 h
endpointName: IC50 (µM)
Numbers only here, please. The scale is µM.

Use these answered entries as a reference point.
Input line: For NCI-H460, give the measured IC50 of the entry `COc1cccc([Se]c2c(-c3ccccc3)ncc3ccccc23)c1`
Output line: 56.5

Input line: For NCI-H460, give the measured IC50 of the entry `COc1ccc([Se]c2c(-c3ccccc3)ncc3cccc(F)c23)cc1`
Output line: 53.2

Input line: For NCI-H460, give the measured IC50 of the entry `Cc1ccccc1[Se]c1c(-c2ccccc2)ncc2ccccc12`
Output line: 61.6

Input line: For NCI-H460, give the measured IC50 of the entry `CC(C)(C)c1ccc(-c2ncc3ccccc3c2[Se]c2ccccc2)cc1`
Output line: 40.8

Others:
Input line: For NCI-H460, give the measured IC50 of the entry `Clc1ccc([Se]c2c(-c3ccccc3)ncc3ccccc23)cc1`
Output line: 82

Input line: For NCI-H460, give the measured IC50 of the entry `COc1ccc2c([Se]c3ccccc3)c(-c3ccccc3)ncc2c1`
Output line: 76.6

Input line: For NCI-H460, give the measured IC50 of the entry `Cc1ccc([Se]c2c(-c3ccccc3)ncc3ccccc23)cc1`
Output line: 52

Input line: For NCI-H460, give the measured IC50 of the entry `FC(F)(F)c1cccc([Se]c2c(-c3ccccc3)ncc3ccccc23)c1`
Output line: 47.2

Input line: For NCI-H460, give the measured IC50 of the entry `COc1ccc([Se]c2c(-c3ccccc3)ncc3cc(F)ccc23)cc1`
Output line: 39

Input line: For NCI-H460, give the measured IC50 of the entry `COc1ccc([Se]c2c(-c3ccsc3)ncc3ccccc23)cc1`
Output line: 44.5

Input line: For NCI-H460, give the measured IC50 of the entry `COc1ccc([Se]c2c(-c3ccccc3)ncc3cc(Br)ccc23)cc1`
Output line: 94.8

Input line: For NCI-H460, give the measured IC50 of the entry `COc1ccc([Se]c2c(-c3ccccc3)ncc3cc(C)ccc23)cc1`
Output line: 16.6

----------
- Tested on: NCI-H460
- measurementNotes: Anti-tumor activity against human NCI-H460 cells assessed as cell viability incubated for 48 hrs by CCK-8 assay
- Type: functional, cell-based
- appliedConditions: NCI-H460, 48 h
endpointName: pIC50
Bear in mind: pIC50 is minus log10 of a mol/L concentration; give just that figure.

Input line: For NCI-H460, give the measured pIC50 of the entry `COc1ccc([Se]c2c(-c3ccccc3)ncc3ccccc23)cc1`
Output line: 5.19

Input line: For NCI-H460, give the measured pIC50 of the entry `c1ccc([Se]c2c(-c3ccccc3)ncc3cc4c(cc23)OCO4)cc1`
Output line: 4.47

Input line: For NCI-H460, give the measured pIC50 of the entry O=P1(N(CCCl)CCCl)NCCCO1 (stereo unspecified) [CYCLOPHOSPHAMIDE ANHYDROUS]
Output line: 3.95

Input line: For NCI-H460, give the measured pIC50 of the entry CC[C@@]1(O)C(=O)OCc2c1cc1n(c2=O)Cc2cc3ccccc3nc2-1 [CAMPTOTHECIN]
Output line: 5.61

Input line: For NCI-H460, give the measured pIC50 of the entry `Brc1ccc2c([Se]c3ccccc3)c(-c3ccccc3)ncc2c1`
Output line: 4.06

Others:
Input line: For NCI-H460, give the measured pIC50 of the entry `COc1ccc([Se]c2c(-c3ccccc3)ncc3cccnc23)cc1`
Output line: 5.80

Input line: For NCI-H460, give the measured pIC50 of the entry `COc1ccccc1[Se]c1c(-c2ccccc2)ncc2ccccc12`
Output line: 4.19

----------
- measurementNotes: Antiproliferative activity against rat PA-III cells incubated for 24 hrs by MTT assay
- Type: functional, cell-based
endpointName: IC50

Input line: Using the record for `N#C[Se]Cc1cc(-c2ccccc2)n(-c2ccc(S(N)(=O)=O)cc2)n1` , state its measured IC50.
Output line: 5 µM

Now let's try a different one.
Input line: Using the record for `Cc1ccc(-c2cc(C(F)(F)F)nn2-c2ccc(S(N)(=O)=O)cc2)cc1` , state its measured IC50.
Output line: > 20 µM

----------
- Tested on: NCI-H460
- measurementNotes: Induction of apoptosis in human NCI-H460 cells assessed as apoptosis rate at 500 nM incubated for 24 hrs by annexin V-FITC/PI staining based flow cytometry analysis relative to control
- Format: functional
Here the recorded Activity is given for each entry.
Numbers only here, please. The scale is %.

Use these answered entries as a reference point.
Input line: Using the record for `COc1ccc([Se]c2c(-c3ccccc3)ncc3ccc(OC)cc23)cc1` , state its measured Activity.
Output line: 31.5

Input line: Using the record for CC[C@@]1(O)C(=O)OCc2c1cc1n(c2=O)Cc2cc3ccccc3nc2-1 [CAMPTOTHECIN] , state its measured Activity.
Output line: 39.1

Input line: Using the record for `COc1ccc([Se]c2c(-c3ccccc3)ncc3ccccc23)cc1` , state its measured Activity.
Output line: 20.8

Now let's try a different one.
Input line: Using the record for `COc1ccc([Se]c2c(-c3ccccc3)ncc3cccnc23)cc1` , state its measured Activity.
Output line: 42.6
